B1: RHOBTB3 (parent)
chain: VSHVFMLLFNVKSPTDIQDSSIIR

Variants of: B1
Assay: protein stability index of a GFP-peptide fusion (GPS, HEK-293T) (PSI 1-6); higher = more stable;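 further: lentivirally expressed fusions sorted by FACS into six bins by GFP to DsRed ratio, PSI derived from sequencing read proportions per bin multiplied by bin number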
Conditions: c terminus: a fixed tail appended
Note to self: class = bucket of protein stability index, per A: < 2; B: ≥ 2 and < 3; C: ≥ 3

Some solved cases for reference:
Where would `V1M` land among the classes by reported protein stability index? C

Same question for `D19L` please. A

Same question for `D19P` please. B

***
Where would `S13T` land among the classes by reported protein stability index? C

Same question for `L8F` please. B

Same question for `L7T` please. B

Same question for `L8K` please. B

Same question for `F5K` please. A
